Value source: patent US9682941B2

Listed next: entries and their corresponding IC50.
Assayed system: CYP3A4 (Homo sapiens, UniProt P08684)
Sequence (P08684 whole entry): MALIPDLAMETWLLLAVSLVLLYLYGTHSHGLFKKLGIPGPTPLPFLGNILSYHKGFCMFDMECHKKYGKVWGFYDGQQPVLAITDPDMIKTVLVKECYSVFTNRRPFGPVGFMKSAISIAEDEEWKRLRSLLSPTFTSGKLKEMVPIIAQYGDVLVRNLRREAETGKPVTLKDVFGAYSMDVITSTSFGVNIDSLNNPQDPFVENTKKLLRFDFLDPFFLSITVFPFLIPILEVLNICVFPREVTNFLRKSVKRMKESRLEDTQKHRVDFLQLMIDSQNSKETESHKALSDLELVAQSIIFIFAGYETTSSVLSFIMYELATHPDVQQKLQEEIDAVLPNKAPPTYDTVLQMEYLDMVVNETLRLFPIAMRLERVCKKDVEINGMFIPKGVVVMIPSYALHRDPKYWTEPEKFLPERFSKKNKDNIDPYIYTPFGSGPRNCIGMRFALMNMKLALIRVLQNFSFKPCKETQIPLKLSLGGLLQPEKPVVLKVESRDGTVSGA
Assay summary: Cytochrome P450 inhibition, human recombinant CYP3A4
Measurement context: recombinant human CYP, 5 minutes, 37° C.
Description: Inhibitory activity of the compounds towards CYP1A2, 2C9, 2C19, 2D6, and 3A4 was evaluated using human recombinant CYPs. Test compounds and reference inhibitors were initially prepared from their stock solutions in a mixture solvent of DMSO/ACN (10/90) at a concentration of 200-fold of the final. […] The inhibitory concentration of 50% of the enzymatic activity is calculated.
Observed property: IC50 (µM)

Molecule	Modifier	Recorded result
N#Cc1cnc(Nn2cnc3ccccc32)cc1-c1ccc(OS(N)(=O)=O)cc1 [Example 26]	=	2.54
N#Cc1cnc(Cn2cnc3cccnc32)cc1-c1ccc(OS(N)(=O)=O)cc1 [Example 36]	>	5
N#Cc1ccc(Nn2cnc3ccccc32)nc1-c1ccc(OS(N)(=O)=O)cc1 [Example 22]	>	5
N#Cc1cnc(Cn2cnc3ccccc32)cc1-c1ccc(OS(N)(=O)=O)cc1 [Example 17]	>	5
N#Cc1ccc(Cn2cnc3cc(F)c(F)cc32)cc1-c1ccc(OS(N)(=O)=O)cc1 [Example 24]	=	3.26
N#Cc1cnc(Cn2cnc3ccccc32)nc1-c1ccc(OS(N)(=O)=O)cc1 [Example 9]	=	3.68
N#Cc1ncc(Cn2cnc3ccccc32)cc1-c1ccc(OS(N)(=O)=O)cc1 [Example 31]	>	5

* * *

Assayed system: CYP2C9 (Homo sapiens, UniProt P11712)
Sequence (P11712 whole entry): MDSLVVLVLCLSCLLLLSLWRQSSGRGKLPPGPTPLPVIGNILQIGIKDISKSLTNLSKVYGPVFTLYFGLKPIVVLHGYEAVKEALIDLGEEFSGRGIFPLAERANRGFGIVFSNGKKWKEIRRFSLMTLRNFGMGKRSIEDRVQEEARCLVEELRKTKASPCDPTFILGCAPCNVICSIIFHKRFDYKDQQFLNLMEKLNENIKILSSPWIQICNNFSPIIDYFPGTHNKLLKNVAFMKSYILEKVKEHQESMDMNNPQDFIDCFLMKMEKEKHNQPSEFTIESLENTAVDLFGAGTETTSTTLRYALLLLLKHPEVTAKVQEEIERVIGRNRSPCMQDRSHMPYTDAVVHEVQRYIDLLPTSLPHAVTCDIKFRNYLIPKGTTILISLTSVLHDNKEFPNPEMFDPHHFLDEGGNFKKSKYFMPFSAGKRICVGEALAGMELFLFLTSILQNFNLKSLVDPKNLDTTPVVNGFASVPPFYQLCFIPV
Assay summary: Cytochrome P450 inhibition, human recombinant CYP2C9
Measurement context: recombinant human CYP, 20 minutes, 37° C.
pIC50: −log10 of the molar value.
Observed property: pIC50

Entry smiles	Recorded result
N#Cc1ncc(Cn2cnc3ccccc32)cc1-c1ccc(OS(N)(=O)=O)cc1	< 5.30
N#Cc1cnc(Cn2cnc3cccnc32)cc1-c1ccc(OS(N)(=O)=O)cc1	< 5.30
N#Cc1ccc(Nn2cnc3ccccc32)nc1-c1ccc(OS(N)(=O)=O)cc1	< 5.30

* * *

Assayed system: steroid sulfatase (Homo sapiens)
Construct: JEG-3 which constitutively expresses high amount of aromatase and steroid sulfatase; endogenous in cells
Sequence (P08842 22-583): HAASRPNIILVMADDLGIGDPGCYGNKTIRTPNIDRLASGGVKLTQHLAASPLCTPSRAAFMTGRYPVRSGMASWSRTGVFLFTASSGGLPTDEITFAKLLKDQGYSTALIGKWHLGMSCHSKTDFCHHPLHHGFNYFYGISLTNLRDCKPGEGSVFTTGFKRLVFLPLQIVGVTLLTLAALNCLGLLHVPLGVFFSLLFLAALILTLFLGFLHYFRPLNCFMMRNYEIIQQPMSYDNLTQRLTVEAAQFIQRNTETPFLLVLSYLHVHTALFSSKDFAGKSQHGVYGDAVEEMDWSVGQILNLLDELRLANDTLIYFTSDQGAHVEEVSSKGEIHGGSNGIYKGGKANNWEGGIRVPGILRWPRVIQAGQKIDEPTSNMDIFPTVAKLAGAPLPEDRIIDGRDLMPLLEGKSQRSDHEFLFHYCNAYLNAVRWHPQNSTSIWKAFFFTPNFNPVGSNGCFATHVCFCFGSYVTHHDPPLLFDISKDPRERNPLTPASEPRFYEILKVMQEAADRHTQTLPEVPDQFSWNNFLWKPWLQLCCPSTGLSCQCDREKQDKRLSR
Assay summary: Steroid sulfatase (STS) inhibition assay in JEG-3 cells ([6,7-3H] estrone sulfate)
Measurement context: 1 hour at 37° C., duplicate
pIC50: −log10 of the molar value.
Observed property: pIC50

Entry smiles	Modifier	Recorded result
CSc1cc(-c2cc(N(C)n3cnc4ccccc43)ccc2C#N)ccc1OS(N)(=O)=O	=	7.75
CN(c1ccc(C#N)c(-c2ccc(OS(N)(=O)=O)cn2)c1)n1cnc2ccccc21	=	7.38
CSc1ccc(-c2cc(N(C)n3cnc4ccccc43)ccc2C#N)cc1OS(N)(=O)=O	<	7.22
N#Cc1ccc(Cn2c(C(F)(F)F)nc3ccccc32)cc1-c1ccc(OS(N)(=O)=O)cc1	=	7.79
CSc1cc(-c2cc(Cn3cnc4ccccc43)ccc2C#N)ccc1OS(N)(=O)=O	=	7.58
N#Cc1ncc(Nn2cnc3ccccc32)cc1-c1ccc(OS(N)(=O)=O)cc1	=	7.72
N#Cc1ccc(Cn2cnc3ccccc32)cc1-c1ccc(OS(N)(=O)=O)cc1	=	8.70
CSc1ccc(-c2cc(Cn3cnc4ccccc43)ccc2C#N)cc1OS(N)(=O)=O	<	7.22
CN(c1ncc(C#N)c(-c2ccc(OS(N)(=O)=O)cc2)n1)n1cnc2cccnc21	<	7.22
N#Cc1cnc(Cn2cnc3cccnc32)nc1-c1ccc(OS(N)(=O)=O)cc1	=	7.97
N#Cc1ncc(Nn2cnc3cccnc32)cc1-c1ccc(OS(N)(=O)=O)cc1	<	7.22
CN(c1cnc(C#N)c(-c2ccc(OS(N)(=O)=O)cc2)n1)n1cnc2cccnc21	<	7.22
N#Cc1ccc(Cn2cnc3cccnc32)nc1-c1ccc(OS(N)(=O)=O)cc1	=	7.66
CN(c1cnc(C#N)c(-c2ccc(OS(N)(=O)=O)cc2)c1)n1cnc2ccccc21	<	7.22
CN(c1cnc(C#N)c(-c2ccc(OS(N)(=O)=O)cc2)n1)n1cnc2ccccc21	=	7.45
N#Cc1ccc(Cn2cnc3cc(F)c(F)cc32)cc1-c1ccc(OS(N)(=O)=O)cc1	=	8.70
CN(c1ncc(C#N)c(-c2ccc(OS(N)(=O)=O)cc2)n1)n1cnc2ccccc21	=	7.66
